- Tested System: Receptor-type tyrosine-protein kinase FLT3 (Homo sapiens, UniProt P36888, D835Y)
- Procedure Summary: Inhibition of human FLT3 D835Y mutant in presence of ATP
Experimental Endpoint: IC50 (pM)
# unit: pM | format: bare number

Query :: Request the reported IC50 associated with Cl.O=C1Nc2ccc(F)cc2/C1=C1/Nc2ccccc2/C1=N\OCCN1CCNCC1
Result :: 320

###

- Tested System: Receptor-type tyrosine-protein kinase FLT3 (Homo sapiens, UniProt P36888)
// map IC50 to label using low end = under 0.009 µM, middle = from 0.009 µM up to 0.04 µM, high end = 0.04 µM and over

The following compounds have reported results that may help.
Molecular String: CN1CCN(CCO/N=C2/C(=C3/C(=O)Nc4ccc([N+](=O)[O-])cc43)Nc3ccc(F)cc32)CC1
Class Assignment: middle
//
Molecular String: Cl.NCCO/N=C1/C(=C2/C(=O)Nc3ccc([N+](=O)[O-])cc32)Nc2ccc(O)cc21
Class Assignment: low end
//
Molecular String: O=C1Nc2ccc(F)cc2/C1=C1/Nc2ccc(F)cc2/C1=N\OCCN1CCOCC1
Class Assignment: high end
//
Molecular String: Cl.O=C1Nc2ccc([N+](=O)[O-])cc2/C1=C1/Nc2ccccc2/C1=N\OCCN1CCNCC1
Class Assignment: middle
//
Molecular String: O=C1Nc2ccccc2/C1=C1/Nc2ccccc2/C1=N\OCCNC1CCNCC1
Class Assignment: middle

Query :: Into which category would you place O=C1Nc2ccccc2/C1=C1/Nc2ccccc2/C1=N\OCCN1CCCC1 ?
Result :: high end

Query :: Can you check Cl.O=C1Nc2ccccc2/C1=C1/Nc2ccccc2/C1=N\OCCN1CCNCC1 next?
Result :: low end

Query :: Can you check O=C1Nc2ccc([N+](=O)[O-])cc2/C1=C1/Nc2ccc(O)cc2/C1=N\OCCN1CCOCC1 next?
Result :: high end

Query :: Can you check Cl.O=C1Nc2ccc(F)cc2/C1=C1/Nc2ccccc2/C1=N\OCCN1CCNCC1 next?
Result :: low end

Query :: Can you check CN1CCN(CCO/N=C2/C(=C3/C(=O)Nc4ccc(F)cc43)Nc3ccccc32)CC1 next?
Result :: low end

Query :: Can you check O=C1Nc2ccc(F)cc2/C1=C1/Nc2ccccc2/C1=N\OCCN1CCCCC1 next?
Result :: high end

###

- Tested System: Macrophage colony-stimulating factor 1 receptor (Homo sapiens)
- Sequence (P07333 whole entry): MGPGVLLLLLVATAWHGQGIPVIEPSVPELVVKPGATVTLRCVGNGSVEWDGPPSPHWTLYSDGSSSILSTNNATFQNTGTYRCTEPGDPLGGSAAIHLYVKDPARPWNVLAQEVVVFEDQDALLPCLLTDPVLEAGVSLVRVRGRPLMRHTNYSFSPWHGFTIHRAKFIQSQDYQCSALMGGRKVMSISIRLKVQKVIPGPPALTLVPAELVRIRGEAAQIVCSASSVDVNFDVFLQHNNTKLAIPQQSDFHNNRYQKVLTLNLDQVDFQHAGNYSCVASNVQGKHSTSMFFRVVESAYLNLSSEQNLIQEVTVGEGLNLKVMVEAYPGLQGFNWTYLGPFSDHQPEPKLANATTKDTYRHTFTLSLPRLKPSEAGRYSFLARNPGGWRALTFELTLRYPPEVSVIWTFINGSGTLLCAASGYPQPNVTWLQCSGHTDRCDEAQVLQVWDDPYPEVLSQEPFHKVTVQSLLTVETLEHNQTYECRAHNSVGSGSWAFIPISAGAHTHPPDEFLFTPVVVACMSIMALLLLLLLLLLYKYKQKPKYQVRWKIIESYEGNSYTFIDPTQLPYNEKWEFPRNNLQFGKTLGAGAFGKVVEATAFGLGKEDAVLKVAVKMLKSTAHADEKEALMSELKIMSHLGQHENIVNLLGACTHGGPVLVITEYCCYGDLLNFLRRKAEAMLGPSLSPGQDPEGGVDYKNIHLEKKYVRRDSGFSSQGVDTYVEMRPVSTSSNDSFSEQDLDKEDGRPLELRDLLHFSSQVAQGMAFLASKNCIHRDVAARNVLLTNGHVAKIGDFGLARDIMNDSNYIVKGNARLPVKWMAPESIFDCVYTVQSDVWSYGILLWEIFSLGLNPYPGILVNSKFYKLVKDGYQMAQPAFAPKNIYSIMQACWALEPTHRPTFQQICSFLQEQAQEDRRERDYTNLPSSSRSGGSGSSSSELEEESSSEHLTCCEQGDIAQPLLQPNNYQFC
Experimental Endpoint: pIC50
Convention used: pIC50 is expressed as -log10 of the molar concentration.

Query :: Request the reported pIC50 associated with Cl.O=C1Nc2ccc(F)cc2/C1=C1/Nc2ccccc2/C1=N\OCCN1CCNCC1
Result :: 8.38

###

This listing pairs compounds with measured AUC(0-t) at 24 h.
- Procedure Summary: AUClast in ICR mouse at 10 mg/kg, iv or po measured up to 1440 mins by LC-MS/MS analysis
- Format: ADME, organism-based
- Design: dose 10 mg/kg, time <=1440
- Condition Info: in vivo
# unit: ng·h/mL | format: bare number

Molecular String: Cl.O=C1Nc2ccc(F)cc2/C1=C1/Nc2ccccc2/C1=N\OCCN1CCNCC1
Val: 417

Next up:
Query :: Request the reported AUC(0-t) at 24 h associated with Cl.O=C1Nc2ccccc2/C1=C1/Nc2ccccc2/C1=N\OCCN1CCNCC1
Result :: 1200

###

- Tested System: High affinity nerve growth factor receptor (Homo sapiens, UniProt P04629)
- Sequence (P04629 whole entry): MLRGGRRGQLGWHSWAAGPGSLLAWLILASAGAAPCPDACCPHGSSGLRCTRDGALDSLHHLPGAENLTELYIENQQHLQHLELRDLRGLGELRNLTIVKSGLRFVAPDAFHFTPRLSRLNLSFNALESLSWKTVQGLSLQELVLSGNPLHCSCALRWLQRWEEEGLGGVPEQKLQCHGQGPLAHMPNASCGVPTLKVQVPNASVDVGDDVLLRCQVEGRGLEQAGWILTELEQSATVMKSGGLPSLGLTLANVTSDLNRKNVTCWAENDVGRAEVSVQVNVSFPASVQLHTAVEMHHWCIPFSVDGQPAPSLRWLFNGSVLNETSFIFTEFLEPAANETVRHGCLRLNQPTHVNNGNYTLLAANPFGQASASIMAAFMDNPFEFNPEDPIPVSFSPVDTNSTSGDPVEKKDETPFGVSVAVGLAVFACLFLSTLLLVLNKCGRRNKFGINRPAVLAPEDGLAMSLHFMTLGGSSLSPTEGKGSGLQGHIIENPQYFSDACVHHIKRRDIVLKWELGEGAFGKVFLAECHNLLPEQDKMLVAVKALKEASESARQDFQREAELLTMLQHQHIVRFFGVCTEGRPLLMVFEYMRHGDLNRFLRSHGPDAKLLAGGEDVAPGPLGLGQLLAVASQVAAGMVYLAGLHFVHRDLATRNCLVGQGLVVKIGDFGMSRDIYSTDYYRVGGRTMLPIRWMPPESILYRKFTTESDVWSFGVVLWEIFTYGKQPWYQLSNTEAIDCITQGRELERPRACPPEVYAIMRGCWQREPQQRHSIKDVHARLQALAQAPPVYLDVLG
Experimental Endpoint: IC50 (nM)
# unit: nM | format: bare number

Query :: Request the reported IC50 associated with Cl.O=C1Nc2ccc(F)cc2/C1=C1/Nc2ccccc2/C1=N\OCCN1CCNCC1
Result :: 6.89

###

- Procedure Summary: Acute toxicity in ICR male mouse assessed as approximate lethal dose
- Condition Info: in vivo, read-out: ALD50
Experimental Endpoint: LD50 (mg/kg)
# unit: mg/kg | format: bare number

Query :: Request the reported LD50 associated with Cl.O=C1Nc2ccc(F)cc2/C1=C1/Nc2ccccc2/C1=N\OCCN1CCNCC1
Result :: 2000

###

- Tested System: Vascular endothelial growth factor receptor 3 (Homo sapiens)
- Sequence (P35916 whole entry): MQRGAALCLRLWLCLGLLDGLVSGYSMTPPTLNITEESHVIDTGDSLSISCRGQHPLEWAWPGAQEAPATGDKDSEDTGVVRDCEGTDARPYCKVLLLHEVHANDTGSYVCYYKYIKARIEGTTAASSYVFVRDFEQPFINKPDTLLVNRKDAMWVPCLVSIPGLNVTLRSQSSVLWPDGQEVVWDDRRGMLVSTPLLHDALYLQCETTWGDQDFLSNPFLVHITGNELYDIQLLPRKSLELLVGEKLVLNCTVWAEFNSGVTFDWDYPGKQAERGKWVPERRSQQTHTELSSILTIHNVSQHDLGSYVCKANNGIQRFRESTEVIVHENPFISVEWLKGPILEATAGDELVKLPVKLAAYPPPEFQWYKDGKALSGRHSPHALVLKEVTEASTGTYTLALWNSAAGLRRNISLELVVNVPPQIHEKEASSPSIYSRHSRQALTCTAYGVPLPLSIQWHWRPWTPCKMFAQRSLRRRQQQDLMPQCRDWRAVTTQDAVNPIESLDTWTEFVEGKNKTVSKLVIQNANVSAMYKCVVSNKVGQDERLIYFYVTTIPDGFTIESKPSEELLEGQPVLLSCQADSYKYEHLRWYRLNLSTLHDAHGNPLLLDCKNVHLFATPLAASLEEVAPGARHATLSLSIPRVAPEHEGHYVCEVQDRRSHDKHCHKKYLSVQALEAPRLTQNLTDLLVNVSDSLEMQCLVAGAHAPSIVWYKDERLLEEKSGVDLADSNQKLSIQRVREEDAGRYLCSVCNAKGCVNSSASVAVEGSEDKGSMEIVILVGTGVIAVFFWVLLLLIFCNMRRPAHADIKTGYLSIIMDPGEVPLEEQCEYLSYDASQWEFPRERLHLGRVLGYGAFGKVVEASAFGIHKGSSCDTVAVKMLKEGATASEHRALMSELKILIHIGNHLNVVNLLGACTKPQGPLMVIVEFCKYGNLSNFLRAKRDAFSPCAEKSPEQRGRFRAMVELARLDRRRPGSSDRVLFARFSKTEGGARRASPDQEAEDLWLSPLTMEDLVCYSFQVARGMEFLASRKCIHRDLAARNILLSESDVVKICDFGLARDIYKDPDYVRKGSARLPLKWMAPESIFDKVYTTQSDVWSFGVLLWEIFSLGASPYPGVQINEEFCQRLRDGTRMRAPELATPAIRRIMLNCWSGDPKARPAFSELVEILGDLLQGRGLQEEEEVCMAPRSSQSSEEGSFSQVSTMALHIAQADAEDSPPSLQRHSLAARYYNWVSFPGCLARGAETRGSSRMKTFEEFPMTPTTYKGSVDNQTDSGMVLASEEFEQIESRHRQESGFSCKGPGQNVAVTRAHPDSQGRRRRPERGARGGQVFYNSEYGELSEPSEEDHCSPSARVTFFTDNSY
Experimental Endpoint: pIC50
Convention used: pIC50 is expressed as -log10 of the molar concentration.

Query :: Request the reported pIC50 associated with Cl.O=C1Nc2ccc(F)cc2/C1=C1/Nc2ccccc2/C1=N\OCCN1CCNCC1
Result :: 7.62

###

- Procedure Summary: Half-life in ICR mouse at 10 mg/kg, iv or po measured up to 1440 mins by LC-MS/MS analysis
- Type: ADME, organism-based
- Condition Info: in vivo
This listing pairs compounds with measured half-life.

Molecular String: Cl.O=C1Nc2ccc(F)cc2/C1=C1/Nc2ccc(F)cc2/C1=N\OCCN1CCNCC1
Val: 204 min

Query :: Request the reported half-life associated with Cl.O=C1Nc2ccc(F)cc2/C1=C1/Nc2ccc(F)cc2/C1=N\OCCNC1CCNCC1
Result :: 552 min

###

- Tested System: Proto-oncogene tyrosine-protein kinase receptor Ret (Homo sapiens, UniProt P07949)
- Sequence (P07949 whole entry): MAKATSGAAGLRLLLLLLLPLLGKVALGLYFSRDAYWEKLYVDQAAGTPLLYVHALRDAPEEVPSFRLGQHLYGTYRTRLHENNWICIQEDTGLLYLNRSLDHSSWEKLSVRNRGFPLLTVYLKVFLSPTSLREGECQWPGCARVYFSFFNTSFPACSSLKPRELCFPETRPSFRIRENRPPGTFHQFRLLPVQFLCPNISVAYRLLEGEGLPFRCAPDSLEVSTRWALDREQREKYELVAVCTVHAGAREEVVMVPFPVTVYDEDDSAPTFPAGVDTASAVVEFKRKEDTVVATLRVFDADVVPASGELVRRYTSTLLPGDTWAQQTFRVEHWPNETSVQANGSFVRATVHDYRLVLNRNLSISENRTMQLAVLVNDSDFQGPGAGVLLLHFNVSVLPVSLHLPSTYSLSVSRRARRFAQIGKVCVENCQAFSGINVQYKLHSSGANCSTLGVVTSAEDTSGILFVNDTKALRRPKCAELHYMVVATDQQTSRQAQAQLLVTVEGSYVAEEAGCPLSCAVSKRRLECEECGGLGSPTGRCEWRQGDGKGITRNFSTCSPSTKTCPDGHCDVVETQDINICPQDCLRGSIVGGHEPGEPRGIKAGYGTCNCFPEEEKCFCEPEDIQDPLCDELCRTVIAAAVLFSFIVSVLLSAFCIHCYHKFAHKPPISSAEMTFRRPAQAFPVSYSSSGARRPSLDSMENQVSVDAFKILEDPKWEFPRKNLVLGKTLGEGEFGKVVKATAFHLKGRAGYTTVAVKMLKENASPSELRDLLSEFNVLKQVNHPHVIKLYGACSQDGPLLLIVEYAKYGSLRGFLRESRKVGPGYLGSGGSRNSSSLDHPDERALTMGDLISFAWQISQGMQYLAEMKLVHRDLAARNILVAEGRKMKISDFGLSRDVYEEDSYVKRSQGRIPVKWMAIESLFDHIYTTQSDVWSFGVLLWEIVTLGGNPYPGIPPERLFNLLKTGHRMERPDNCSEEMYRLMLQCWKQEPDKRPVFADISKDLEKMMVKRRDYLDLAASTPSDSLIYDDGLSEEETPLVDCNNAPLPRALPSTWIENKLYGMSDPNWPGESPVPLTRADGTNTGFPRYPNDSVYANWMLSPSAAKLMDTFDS
Experimental Endpoint: IC50 (nM)
# unit: nM | format: bare number

Query :: Request the reported IC50 associated with Cl.O=C1Nc2ccc(F)cc2/C1=C1/Nc2ccccc2/C1=N\OCCN1CCNCC1
Result :: 1.21

Values were extracted from ChEMBL document CHEMBL4765285.
